Recorded values, source patent US20160046721A1.

A collection of binders and their measured Kd
- system.name: T1, GV27 peptide (ER-α36 c-terminal 27 aa) (human)
- T1 construct: also called 27 aa peptide (F domain); 27-amino acid peptide derived from the F domain of ER-α36
- T1 peptide: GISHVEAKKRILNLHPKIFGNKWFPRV
- assay.details: Biacore; table head says human ER-α36, analyte taken as the GV27 peptide of Example 5
Numbers only here, please. The scale is nM.

SNGHZD (C2L + C5H) (antibody, human IgG1, kappa, V domains shown, Humanized antibody, human IgG1/kappa; also called humanized SNGmB1 variant C2L + C5H) VH: QVQLVQSGAEVKKPGASVKVSCKASGYTFTSHNMHWVRQAPGQGLEWIGAIHPVNGDTAYNQKFKGKATLTVDKSTSTAYLELSSLRSEDTAVYYCAREGYGSVDYWGQGTLVTVSS VL: ETTVTQSPAFMSATPGDKVNISCITSTDIDDDMNWYQQKPGEAAILIISEGNTLRPGIPPRFSSSGYGTDFTLTINNIESEDAAYYFCLQSDNLPLTFGQGTKLEIKR; 0.13
SNGHZD (C1L + C5H) (antibody, human IgG1, kappa, V domains shown, Humanized antibody, human IgG1/kappa, expressed in 293E6 cells; also called humanized SNGmB1 variant C1L + C5H) VH: QVQLVQSGAEVKKPGASVKVSCKASGYTFTSHNMHWVRQAPGQGLEWIGAIHPVNGDTAYNQKFKGKATLTVDKSTSTAYLELSSLRSEDTAVYYCAREGYGSVDYWGQGTLVTVSS VL: ETTVTQSPAFMSATPGDKVNISCITSTDIDDDMNWYQQKPGEAPILIISEGNTLRPGIPPRFSSSGYGTDFTLTINNIESEDAAYYFCLQSDNLPLTFGQGTKLEIKR; 0.164
SNGHZD (C2L + C6H) (antibody, human IgG1, kappa, V domains shown, Humanized antibody, human IgG1/kappa; also called humanized SNGmB1 variant C2L + C6H) VH: QVQLVQSGAEVKKPGASVKVSCKASGYTFTSHNMHWVRQAPGQGLEWIGAIHPVNGDTAYNQKFKGKATLTVDKSTSTAYMELSSLRSEDTAVYYCAREGYGSVDYWGQGTLVTVSS VL: ETTVTQSPAFMSATPGDKVNISCITSTDIDDDMNWYQQKPGEAAILIISEGNTLRPGIPPRFSSSGYGTDFTLTINNIESEDAAYYFCLQSDNLPLTFGQGTKLEIKR; 0.31
SNGHZD (C3L + C5H) (antibody, human IgG1, kappa, V domains shown, Humanized antibody, human IgG1/kappa; also called humanized SNGmB1 variant C3L + C5H) VH: QVQLVQSGAEVKKPGASVKVSCKASGYTFTSHNMHWVRQAPGQGLEWIGAIHPVNGDTAYNQKFKGKATLTVDKSTSTAYLELSSLRSEDTAVYYCAREGYGSVDYWGQGTLVTVSS VL: ETTVTQSPAFMSATPGDKVNISCITSTDIDDDMNWYQQKPGEAPILIISEGNTLRPGIPPRFSGSGYGTDFTLTINNIESEDAAYYFCLQSDNLPLTFGQGTKLEIKR; 0.1
SNGHZD (C3L + C6H) (antibody, human IgG1, kappa, V domains shown, Humanized antibody, human IgG1/kappa; also called humanized SNGmB1 variant C3L + C6H) VH: QVQLVQSGAEVKKPGASVKVSCKASGYTFTSHNMHWVRQAPGQGLEWIGAIHPVNGDTAYNQKFKGKATLTVDKSTSTAYMELSSLRSEDTAVYYCAREGYGSVDYWGQGTLVTVSS VL: ETTVTQSPAFMSATPGDKVNISCITSTDIDDDMNWYQQKPGEAPILIISEGNTLRPGIPPRFSGSGYGTDFTLTINNIESEDAAYYFCLQSDNLPLTFGQGTKLEIKR; 0.271

// next item, Kd requested
Record summary for SNGHZD (C1L + C6H) (antibody, human IgG1, kappa, V domains shown, Humanized antibody, human IgG1/kappa; also called humanized SNGmB1 variant C1L + C6H) VH: QVQLVQSGAEVKKPGASVKVSCKASGYTFTSHNMHWVRQAPGQGLEWIGAIHPVNGDTAYNQKFKGKATLTVDKSTSTAYMELSSLRSEDTAVYYCAREGYGSVDYWGQGTLVTVSS VL: ETTVTQSPAFMSATPGDKVNISCITSTDIDDDMNWYQQKPGEAPILIISEGNTLRPGIPPRFSSSGYGTDFTLTINNIESEDAAYYFCLQSDNLPLTFGQGTKLEIKR : reported Kd = 0.105
